Where do these numbers come from? They come from the supplement of paper PMC10567573.

B1: ALDH8A1 (parent)
chain: RVAKKLQSGLVWTNCWLIRELNLP

Variants of: B1
Assay: protein stability index of a GFP-peptide fusion (GPS, HEK-293T) (PSI 1-6); higher = more stable;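 further: lentivirally expressed fusions sorted by FACS into six bins by GFP to DsRed ratio, PSI derived from sequencing read proportions per bin multiplied by bin number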
Conditions: c terminus: a fixed tail appended
recorded_metric: protein stability index

// known answers, use as guide
variant_key | recorded_metric | measurement
K5M | protein stability index | 3.19
G9M | protein stability index | 3.32
V2I | protein stability index | 3.68
V2E | protein stability index | 1.9

Please fill in: protein stability index reported for L23Q = 3.48

Please fill in: protein stability index reported for L6Q = 2.86

Please fill in: protein stability index reported for L17E = 2.77

Please fill in: protein stability index reported for K5I = 2.13

Please fill in: protein stability index reported for W16N = 2.1

Please fill in: protein stability index reported for L6A = 2.04

Please fill in: protein stability index reported for V2S = 3.15

Please fill in: protein stability index reported for E20Y = 3.02

Please fill in: protein stability index reported for I18K = 4.38

Please fill in: protein stability index reported for L17R = 3.13

Please fill in: protein stability index reported for R1L = 5

Please fill in: protein stability index reported for R1C = 1.74
